B1: Formin-binding protein 4, residues 200 to 261; numbered along this chain, Q8N3X1 (parent)
chain: SGWQYDTQCSLAGVGIEMGDWQEVWDENTGCYYYWNTQTNEVTWELPQYLATQVQGLQHYQP

variants of: B1; experiment: abundance fitness (aPCA) (normalised: wild type 0, dead -1); higher = more abundant; growth selection in yeast, the domain comes from the species named; details: Homo sapiens
Criterion: abundance fitness meeting or surpassing -0.1. Met: class 1. Not met: class 0.

For orientation, consider the following solved cases.
variant_spec=W44C category_label="class 1"
variant_spec=Q61N category_label="class 0"

Query string: Tell me whether abundance fitness is at least -0.1 here: A12F
Result string: class 0

Query string: Tell me whether abundance fitness is at least -0.1 here: V14C
Result string: class 1

Query string: Tell me whether abundance fitness is at least -0.1 here: V14E
Result string: class 1
